# system: human muscarinic receptor M3 (Homo sapiens)
# Construct: expressed in transfected cells; cultured in Ham's F-12 medium
# protocol details: Time-dependent inhibition of M3 activity, Fluo-4 NW calcium fluorescence
# Format: cell-based
# conditions: 25 min; peptide 50 μM, 25 minutes (direct effect); read-out: % Inhibition hM3 receptor activity
Peptide text beside a SMILES is read from it. * marks the point of attachment. Palmitoyl = CCCCCCCCCCCCCCCC(=O)*
Answer each item with its documented inhibition at 50 µM.
Give the figure together with its unit, number first.

compound: CCCCCCCCCCCCCCCC(=O)N[C@@H](Cc1c[nH]c2ccccc12)C(=O)N[C@@H](CCSC)C(=O)N[C@@H](Cc1ccccc1)C(=O)N[C@@H](CC(C)C)C(=O)N[C@@H](CCCCN)C(N)=O [Seq. ID No. 5 Palmitoyl] (Palmitoyl-WMFLK-NH2)
inhibition at 50 µM: -7.1%

Now consider a different compound.
Input line: Lookup: inhibition at 50 µM / human muscarinic receptor M3 (Homo sapiens) / CCCCCCCCCCCCCCCC(=O)N[C@@H](Cc1c[nH]c2ccccc12)C(=O)N[C@@H](CCSC)C(=O)N[C@@H](CCCNC(=N)N)C(=O)N[C@@H](CC(C)C)C(=O)N[C@@H](CCCCN)C(N)=O [Seq. ID No. 2 Palmitoyl, Palm-WMRLK-NH2] (Palmitoyl-WMRLK-NH2)
Output line: 25.5%

* * *

Answer each item with its documented inhibition at 100 µM.
# system: human muscarinic receptor M3 (Homo sapiens, UniProt P20309)
# Construct: expressed in transfected cells; cultured in Ham's F-12 medium
# Sequence (P20309 whole entry): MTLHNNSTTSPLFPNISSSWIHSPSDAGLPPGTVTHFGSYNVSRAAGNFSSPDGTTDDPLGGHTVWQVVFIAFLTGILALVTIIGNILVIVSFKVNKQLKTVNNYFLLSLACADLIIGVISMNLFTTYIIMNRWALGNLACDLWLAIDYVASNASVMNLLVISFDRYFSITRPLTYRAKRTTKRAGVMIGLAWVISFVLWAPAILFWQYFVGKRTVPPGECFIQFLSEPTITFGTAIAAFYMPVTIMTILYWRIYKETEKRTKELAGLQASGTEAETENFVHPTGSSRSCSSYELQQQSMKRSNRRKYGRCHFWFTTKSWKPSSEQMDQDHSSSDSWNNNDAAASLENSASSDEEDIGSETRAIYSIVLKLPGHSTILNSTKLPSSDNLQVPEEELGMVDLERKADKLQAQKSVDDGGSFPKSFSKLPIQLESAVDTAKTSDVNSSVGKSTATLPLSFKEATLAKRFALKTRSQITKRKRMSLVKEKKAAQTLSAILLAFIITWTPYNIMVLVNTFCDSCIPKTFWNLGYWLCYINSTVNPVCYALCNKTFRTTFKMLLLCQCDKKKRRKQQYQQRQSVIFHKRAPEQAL
# protocol details: Inhibition of M3-acetylcholine activation, Fluo-4 NW calcium fluorescence
# Format: cell-based
# conditions: 50 min; peptide 100 μM, 50 min incubation, 10 nM acetylcholine
Peptide text beside a SMILES is read from it. * marks the point of attachment. Palmitoyl = CCCCCCCCCCCCCCCC(=O)*; Myristoyl = CCCCCCCCCCCCCC(=O)*
Give the figure together with its unit, number first.

compound: CCCCCCCCCCCCCCCC(=O)N[C@@H](Cc1c[nH]c2ccccc12)C(=O)N[C@@H](CCSC)C(=O)N[C@@H](CCCNC(=N)N)C(=O)N[C@@H](CC(C)C)C(=O)N[C@@H](CCCCN)C(N)=O [Seq. ID No. 2 Palmitoyl, Palm-WMRLK-NH2] (Palmitoyl-WMRLK-NH2)
inhibition at 100 µM: 88.6%

compound: CCCCCCCCCCCCCC(=O)N[C@@H](CCCNC(=N)N)C(=O)N[C@H](C(=O)N[C@@H](CCSC)C(=O)N[C@@H](Cc1ccc(O)cc1)C(=O)N[C@@H](CCCCN)C(=O)N[C@@H](CCSC)C(=O)N[C@@H](CC(N)=O)C(=O)N[C@@H](CCCCN)C(=O)N[C@@H](CCCNC(=N)N)C(=O)N[C@@H](CC(=O)O)C(=O)N[C@@H](Cc1ccc(O)cc1)C(N)=O)C(C)C [Seq. ID No. 7 Myristoyl] (Myristoyl-RVMYKMNKRDY-NH2)
inhibition at 100 µM: 92.4%

Now consider a different compound.
Input line: Dear colleague, I am looking for the recorded inhibition at 100 µM of the following compound: CCCCCCCCCCCCCC(=O)N[C@@H](CCCNC(=N)N)C(=O)N[C@@H](CCSC)C(=O)N[C@@H](Cc1ccc(O)cc1)C(=O)N[C@@H](CCCCN)C(=O)N[C@@H](CCSC)C(=O)N[C@@H](CCSC)C(=O)N[C@@H](C)C(=O)NCC(=O)N[C@@H](CCSC)C(=O)N[C@@H](Cc1ccc(O)cc1)C(=O)N[C@@H](CC(C)C)C(=O)N[C@@H](CCCNC(=N)N)C(N)=O [Seq. ID No. 6 Myristoyl] (Myristoyl-RMYKMMAGMYLR-NH2)
Output line: 92.1%
